Give measured IC50 for each item. Keep answers brief.
# Experimental target: human vanilloid-1 (hVR-1) in hVR-1-HEK293 cell line (Homo sapiens)
# Assay details: Inhibitory effect on calcium influx via a vanilloid receptor (capsaicin-stimulated, Fluo-3/AM)
# Conditions: hVR-1-HEK293 cells, 1 μM of capsaicin, compounds 0.015˜2000 nM; read-out: I.A. (inhibitory activity), IC50 on intracellular calcium influx

Asked: Reported IC50 for human vanilloid-1 (hVR-1) in hVR-1-HEK293 cell line (Homo sapiens), given Clc1cccnc1N1CCOc2c(-c3nc4ccc(Br)cc4[nH]3)cccc21 [Example 21] ?
Given back: 101 to 500 nM

Asked: Reported IC50 for human vanilloid-1 (hVR-1) in hVR-1-HEK293 cell line (Homo sapiens), given Cc1ccc(N2CCOc3c(-c4nc5ccc(C(F)(F)F)cc5[nH]4)cccc32)nc1 [Example 25] ?
Given back: 20 to 100 nM

Asked: Reported IC50 for human vanilloid-1 (hVR-1) in hVR-1-HEK293 cell line (Homo sapiens), given Cc1ccc(N2CCOc3c(-c4nc5ccc(Br)cc5[nH]4)cccc32)nc1 [Example 26] ?
Given back: 101 to 500 nM

Asked: Reported IC50 for human vanilloid-1 (hVR-1) in hVR-1-HEK293 cell line (Homo sapiens), given Cc1ccc(N2CCOc3c(-c4nc5c(C(F)(F)F)cc(C(F)(F)F)cc5[nH]4)cccc32)nc1 [Example 30] ?
Given back: 101 to 500 nM

###

# Experimental target: human vanilloid-1 (hVR-1) in hVR-1-HEK293 cell line (Homo sapiens, UniProt Q8NER1)
# Sequence (Q8NER1 whole entry): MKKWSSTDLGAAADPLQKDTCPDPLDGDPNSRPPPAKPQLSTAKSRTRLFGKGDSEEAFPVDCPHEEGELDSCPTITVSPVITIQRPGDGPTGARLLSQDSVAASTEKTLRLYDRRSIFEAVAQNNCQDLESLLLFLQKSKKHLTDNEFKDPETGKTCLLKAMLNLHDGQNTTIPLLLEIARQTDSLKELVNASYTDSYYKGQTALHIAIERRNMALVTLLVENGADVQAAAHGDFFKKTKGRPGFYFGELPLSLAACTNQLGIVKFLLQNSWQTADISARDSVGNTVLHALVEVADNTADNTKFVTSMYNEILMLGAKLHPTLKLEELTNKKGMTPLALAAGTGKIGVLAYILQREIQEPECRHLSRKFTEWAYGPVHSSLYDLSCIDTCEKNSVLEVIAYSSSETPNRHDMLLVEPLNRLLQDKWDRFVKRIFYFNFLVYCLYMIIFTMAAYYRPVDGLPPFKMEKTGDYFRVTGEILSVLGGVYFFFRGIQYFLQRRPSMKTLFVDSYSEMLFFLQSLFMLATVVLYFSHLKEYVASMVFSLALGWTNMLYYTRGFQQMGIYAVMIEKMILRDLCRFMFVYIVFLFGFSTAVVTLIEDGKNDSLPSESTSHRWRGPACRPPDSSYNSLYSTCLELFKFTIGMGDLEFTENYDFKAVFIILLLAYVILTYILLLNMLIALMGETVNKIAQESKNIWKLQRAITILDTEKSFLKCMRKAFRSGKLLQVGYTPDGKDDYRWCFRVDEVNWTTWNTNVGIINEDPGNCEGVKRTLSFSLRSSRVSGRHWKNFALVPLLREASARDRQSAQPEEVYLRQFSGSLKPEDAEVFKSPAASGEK
# Assay details: Inhibitory effect on calcium influx via a vanilloid receptor (capsaicin-stimulated, Fluo-3/AM)
# Conditions: hVR-1-HEK293 cells, 1 μM of capsaicin, compounds 0.015˜2000 nM; read-out: I.A. (inhibitory activity), IC50 on intracellular calcium influx
pIC50: −log10 of the molar value.
Give measured pIC50 for each item. Keep answers brief.

Asked: Which pIC50 is reported for this compound? COC[C@H]1COc2c(-c3nc4cc(C)ccc4[nH]3)cccc2N1c1ccc(C)cn1
Given back: 6.30 to 7.00

Asked: Which pIC50 is reported for this compound? COC[C@H]1COc2c(-c3nc4ccc(Cl)cc4[nH]3)cccc2N1c1ccc(C)cn1
Given back: > 7.70

Asked: Which pIC50 is reported for this compound? Cc1ccc(N2c3cccc(-c4nc5cc(F)c(Cl)cc5[nH]4)c3OC[C@@H]2CO)nc1
Given back: > 7.70

Asked: Which pIC50 is reported for this compound? COC[C@H]1COc2c(-c3nc4cc(F)c(F)cc4[nH]3)cccc2N1c1ccc(C)cn1
Given back: > 7.70

###

# Experimental target: human vanilloid-1 (hVR-1) in hVR-1-HEK293 cell line (Homo sapiens, UniProt Q8NER1)
# Assay details: Inhibitory effect on calcium influx via a vanilloid receptor (capsaicin-stimulated, Fluo-3/AM)
# Conditions: hVR-1-HEK293 cells, 1 μM of capsaicin, compounds 0.015˜2000 nM; read-out: I.A. (inhibitory activity), IC50 on intracellular calcium influx
pIC50: −log10 of the molar value.
Observed property: pIC50

Asked: Reported pIC50 for human vanilloid-1 (hVR-1) in hVR-1-HEK293 cell line (Homo sapiens, UniProt Q8NER1), given COC[C@H]1COc2c(-c3nc4ccc(C#N)cc4[nH]3)cccc2N1c1ccc(C)cn1 ?
Given back: 7.00 to 7.70

Asked: Reported pIC50 for human vanilloid-1 (hVR-1) in hVR-1-HEK293 cell line (Homo sapiens, UniProt Q8NER1), given Cc1ccc(N2c3cccc(-c4nc5ccc(OC(F)(F)F)cc5[nH]4)c3OC[C@@H]2CO)nc1 ?
Given back: > 7.70

Asked: Reported pIC50 for human vanilloid-1 (hVR-1) in hVR-1-HEK293 cell line (Homo sapiens, UniProt Q8NER1), given Cc1ccc(N2c3cccc(-c4nc5c(C(F)(F)F)cc(C(F)(F)F)cc5[nH]4)c3OC[C@@H]2CO)nc1 ?
Given back: 7.00 to 7.70

Asked: Reported pIC50 for human vanilloid-1 (hVR-1) in hVR-1-HEK293 cell line (Homo sapiens, UniProt Q8NER1), given CC(C)(C)c1ccc2nc(-c3cccc4c3OCCN4c3ncccc3C(F)(F)F)[nH]c2c1 ?
Given back: < 6.00

Asked: Reported pIC50 for human vanilloid-1 (hVR-1) in hVR-1-HEK293 cell line (Homo sapiens, UniProt Q8NER1), given Cc1ccc(N2c3cccc(-c4nc5c(C)cccc5[nH]4)c3OC[C@@H]2CO)nc1 ?
Given back: > 7.70

Asked: Reported pIC50 for human vanilloid-1 (hVR-1) in hVR-1-HEK293 cell line (Homo sapiens, UniProt Q8NER1), given C=Cc1ccc(N2c3cccc(-c4nc5c(Cl)cc(C(F)(F)F)cc5[nH]4)c3OC[C@@H]2CO)nc1 ?
Given back: > 7.70

Asked: Reported pIC50 for human vanilloid-1 (hVR-1) in hVR-1-HEK293 cell line (Homo sapiens, UniProt Q8NER1), given CC(C)(C)c1ccc2[nH]c(-c3cccc4c3OCCN4c3ccccn3)nc2c1 ?
Given back: 6.30 to 7.00

Asked: Reported pIC50 for human vanilloid-1 (hVR-1) in hVR-1-HEK293 cell line (Homo sapiens, UniProt Q8NER1), given Cc1ccc(N2c3cccc(-c4nc5c(F)cc(Br)cc5[nH]4)c3OC[C@@H]2CO)nc1 ?
Given back: > 7.70

Asked: Reported pIC50 for human vanilloid-1 (hVR-1) in hVR-1-HEK293 cell line (Homo sapiens, UniProt Q8NER1), given C=Cc1ccc(N2c3cccc(-c4nc5ccc(C(F)(F)F)cc5[nH]4)c3OC[C@@H]2CO)nc1 ?
Given back: 7.00 to 7.70

Asked: Reported pIC50 for human vanilloid-1 (hVR-1) in hVR-1-HEK293 cell line (Homo sapiens, UniProt Q8NER1), given C=Cc1ccc(N2c3cccc(-c4nc5c(Br)cc(C(F)(F)F)cc5[nH]4)c3OC[C@@H]2CO)nc1 ?
Given back: > 7.70

Asked: Reported pIC50 for human vanilloid-1 (hVR-1) in hVR-1-HEK293 cell line (Homo sapiens, UniProt Q8NER1), given COC[C@H]1COc2c(-c3nc4ccc(C(F)(F)F)cc4[nH]3)cccc2N1c1ccc(C)cn1 ?
Given back: > 7.70

Asked: Reported pIC50 for human vanilloid-1 (hVR-1) in hVR-1-HEK293 cell line (Homo sapiens, UniProt Q8NER1), given CC(C)(C)c1ccc2[nH]c(-c3cccc4c3OCCN4c3ncc(Cl)cc3Cl)nc2c1 ?
Given back: 7.00 to 7.70
